Test system: DU-145 prostate
assay method text: NCI tumour cell line growth inhibition, 48 h
The following compounds are listed with their measured GI50 values.
measured endpoint: GI50

{"compound": "CCN1CCN(c2ccc(NC(=O)Nc3nc4ccc(-c5ccccc5OC)cc4s3)cc2)CC1", "measured target": "DU-145 prostate", "measured endpoint": "GI50", "recorded measurement": "1750 nM"}
{"compound": "O=C(Nc1nc2c(C(F)(F)F)cccc2s1)c1cc(Cl)ccc1O", "measured target": "DU-145 prostate", "measured endpoint": "GI50", "recorded measurement": "466 nM"}
{"compound": "CC1Cc2c(Cl)ncnc2N(C)c2ccccc21 (centres undefined)", "measured target": "DU-145 prostate", "measured endpoint": "GI50", "recorded measurement": "4450 nM"}
{"compound": "O=C1C=CC2C3C(=O)N(c4ccccc4)C(=O)C3C1N2Cc1ccccc1 (centres undefined)", "measured target": "DU-145 prostate", "measured endpoint": "GI50", "recorded measurement": "9650 nM"}
{"compound": "CN1CCN(Cc2ccc(NC(=O)c3cncc(C#Cc4ccc(N)nc4)c3)cc2C(F)(F)F)CC1", "measured target": "DU-145 prostate", "measured endpoint": "GI50", "recorded measurement": "845 nM"}
{"compound": "Cc1nnc(N/N=C/c2ccc([N+](=O)[O-])o2)[nH]c1=O", "measured target": "DU-145 prostate", "measured endpoint": "GI50", "recorded measurement": "2100 nM"}
{"compound": "CCN(CC)CCOc1nc2ccccc2c2c1-c1ccc(OC)cc1C2=O", "measured target": "DU-145 prostate", "measured endpoint": "GI50", "recorded measurement": "505 nM"}
{"compound": "c1ccc2c(N=NSc3ncnc4nc[nH]c34)c3ccccc3nc2c1", "measured target": "DU-145 prostate", "measured endpoint": "GI50", "recorded measurement": "1400 nM"}
{"compound": "CCN1CCN(C(=O)[C@]23CC[C@@H](C)[C@H](C)[C@@H]2C2=CC[C@@H]4[C@@]5(C)CCC(=O)C(C)(C)[C@@H]5CC[C@@]4(C)[C@]2(C)CC3)CC1", "measured target": "DU-145 prostate", "measured endpoint": "GI50", "recorded measurement": "1670 nM"}
